# System: 786-0 renal
# assay.details: NCI-60 one-dose screen, 48 h
# recorded.conditions: 10 µM unless noted
About 83,000 compounds went through this panel and 20% of them were active in at least one assay; those are over-represented in the sample as a whole. Activity calls are given as the source filed them. How the source made its calls: active means growth percent below 10; inactive means the rest.
Could you please pick one outcome from this set? active, inactive

molecule | label
CC(C)OC(=O)[C@H](C)NP(=O)(Oc1ccccc1)C1CCCN(O)C1=O (stereo partly specified) | inactive
COc1ccc([As]=[As]c2ccc(OC)c(NCS(=O)(=O)O)c2)cc1NCS(=O)(=O)O (stereo unspecified) | active
N#CC1(c2ccccc2)CCN(Cc2ccccc2)CC1 | inactive
COC(=O)[C@H](Cc1ccccc1)NNC(=O)c1csc([C@@H](C[C@H](C(C)C)N(C)C(=O)[C@@H](NC(=O)[C@H]2CCCCN2C)C2CC2)OC(C)=O)n1 | inactive
C=C1[C@@H](C)[C@H]2[C@H](Cc3ccccc3)NC(=O)[C@]23[C@@H](O)/C=C/[C@@](C)(O)C(=O)[C@@H](C)C/C=C/[C@H]3[C@@H]1O | inactive

// switching to the query molecule
Recorded test outcome, item O=C([O][Hg][c]1ccccc1)c1ccccc1
active
